measurementTarget: MMP-8 (Homo sapiens)
Construct: catalytic domain (^99Phe˜^262Gly) was amplified with PCR; His-tag; enterokinase digestion-site; made in house; host or cells: Escherichia coli
Sequence (P22894 99-262): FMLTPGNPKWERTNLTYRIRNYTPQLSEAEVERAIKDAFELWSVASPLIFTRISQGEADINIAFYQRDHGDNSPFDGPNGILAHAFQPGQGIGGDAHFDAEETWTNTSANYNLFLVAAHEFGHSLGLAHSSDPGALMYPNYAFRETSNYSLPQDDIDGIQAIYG
test: Assay for inhibitory activities on MMPs (fluorogenic peptide substrate), MMP-8
Type: biochemical
settings: catalytic domain 99Phe-262Gly; substrate MOCAc-Pro-Leu-Gly-Leu-A2Pr(DNP)-Ala-Arg-NH2
readoutKind: IC50 (nM)

O=C(O)[C@@H](Cc1ccccc1)NS(=O)(=O)c1ccc(-c2ncc(-c3ccc(Cl)cc3)s2)cc1 [Compound B-13]
92.3
COc1ccc(-c2cnc(-c3ccc(S(=O)(=O)N[C@H](CC(C)C)C(=O)O)cc3)s2)cc1 [Compound B-34]
24.9
C[C@@H](NS(=O)(=O)c1ccc(-c2ncc(-c3ccc4ccccc4c3)s2)cc1)C(=O)O [Compound B-53]
373
O=C(O)C[C@@H](NS(=O)(=O)c1ccc(-c2ncc(-c3ccc(Cl)cc3)s2)cc1)C(=O)O [Compound B-38]
104
C[C@@H](NS(=O)(=O)c1ccc(-c2ncc(-c3ccc(Br)cc3)s2)cc1)C(=O)O [Compound B-29]
45.2

a. COc1ccc(-c2cnc(-c3ccc(S(=O)(=O)N[C@H](CC(C)C)C(=O)O)cc3)o2)cc1 [Compound A-28]
b. CC(C)[C@H](NS(=O)(=O)c1ccc(-c2ncc(-c3ccccc3)o2)cc1)C(=O)O [Compound A-22]
Exercise: Quick check, higher IC50 between a and b ? I would appreciate it if you answered with the label of your choice.
Key: b

a. C[C@@H](NS(=O)(=O)c1ccc(-c2ncc(-c3ccc(F)cc3)o2)cc1)C(=O)O [Compound A-6]
b. COc1ccc(-c2cnc(-c3ccc(S(=O)(=O)N[C@H](Cc4ccccc4)C(=O)O)cc3)o2)cc1 [Compound A-14]
Exercise: Quick check, higher IC50 between a and b ? I would appreciate it if you answered with the label of your choice.
Key: a

I. CSCC[C@@H](NS(=O)(=O)c1ccc(-c2ncc(-c3ccc(Cl)cc3)s2)cc1)C(=O)O [Compound B-46]
II. COc1ccc(-c2cnc(-c3ccc(S(=O)(=O)N[C@H](C)C(=O)O)cc3)s2)cc1 [Compound B-23]
III. CSCC[C@@H](NS(=O)(=O)c1ccc(-c2ncc(-c3ccc(Cl)cc3)o2)cc1)C(=O)O [Compound A-36]
IV. COc1ccc(-c2cnc(-c3ccc(S(=O)(=O)N[C@H](Cc4ccccc4)C(=O)O)cc3)s2)cc1 [Compound B-1]
V. C[C@@H](NS(=O)(=O)c1ccc(-c2ncc(-c3ccc4ccccc4c3)o2)cc1)C(=O)O [Compound A-46]
Exercise: Arrange the 5 molecules by rising IC50, starting with the smallest. Please list each label once, in the requested order.
Key: II, IV, I, III, V

a. C[C@H](NS(=O)(=O)c1ccc(-c2ncc(-c3ccc(Cl)cc3)s2)cc1)C(=O)O [Compound B-26]
b. C[C@@H](NS(=O)(=O)c1ccc(-c2ncc(-c3ccc(F)cc3)s2)cc1)C(=O)O [Compound B-27]
Exercise: Hey, which is lower on measured IC50, a or b ? I would appreciate it if you answered with the label of your choice.
Key: b
(b: 25.2 nM, a: 42.5 nM)

1. C[C@@H](NS(=O)(=O)c1ccc(-c2ncc(-c3ccc(Cl)cc3)s2)cc1)C(=O)O [Compound B-25]
2. COc1ccc(-c2cnc(-c3ccc(S(=O)(=O)N[C@@H](C)C(=O)O)cc3)s2)cc1 [Compound B-24]
Exercise: Quick check, higher IC50 between 1 and 2 ? I would appreciate it if you answered with the label of your choice.
Key: 1

1. CC(C)[C@@H](NS(=O)(=O)c1ccc(-c2ncc(-c3ccc(Cl)cc3)s2)cc1)C(=O)O [Compound B-4]
2. CC(C)[C@@H](NS(=O)(=O)c1ccc(-c2ncc(-c3ccc(Br)cc3)s2)cc1)C(=O)O [Compound B-10]
Exercise: Quick check, higher IC50 between 1 and 2 ? I would appreciate it if you answered with the label of your choice.
Key: 1

I. COc1ccc(-c2cnc(-c3ccc(S(=O)(=O)N[C@@H](C(=O)O)C(C)C)cc3)s2)cc1 [Compound B-6]
II. O=C(O)[C@H](Cc1ccccc1)NS(=O)(=O)c1ccc(-c2ncc(-c3ccc(Cl)cc3)s2)cc1 [Compound B-14]
Exercise: Hey, which is lower on measured IC50, I or II ? I would appreciate it if you answered with the label of your choice.
Key: I

P. C[C@@H](NS(=O)(=O)c1ccc(-c2ncc(-c3ccccc3)s2)cc1)C(=O)O [Compound B-21]
Q. O=C(O)[C@H](Cc1ccccc1)NS(=O)(=O)c1ccc(-c2ncc(-c3ccccc3)s2)cc1 [Compound B-12]
R. C[C@@H](NS(=O)(=O)c1ccc(-c2ncc(-c3ccc(Br)cc3)o2)cc1)C(=O)O [Compound A-10]
S. O=C(O)CNS(=O)(=O)c1ccc(-c2ncc(-c3ccc(Cl)cc3)s2)cc1 [Compound B-52]
Exercise: Arrange the 4 molecules by rising IC50, starting with the smallest. Please list each label once, in the requested order.
Key: Q, P, R, S
